systemTested: chimeric 0401-IE class II molecule on cells of transgenic mice (human/murine chimera)
assayRemarks: cell-based or functional assay
metric: IC50 of inhibition of IL-2 secretion from T-Hyb 1 cells

**Query** Fill blank: measured IC50 of inhibition of IL-2 secretion from T-Hyb 1 cells of the binder MS-GPC-8-27-41 IgG4 (antibody, V domains shown, also called 1D09C3; IgG form of MS-GPC-8-27-41) VH: QVQLKESGPALVKPTQTLTLTCTFSGFSLSTSGVGVGWIRQPPGKALEWLALIDWDDDKYYSTSLKTRLTISKDTSKNQVVLTMTNMDPVDTATYYCARSPRYRGAFDYWGQGTLVTVSS VL: DIVLTQPPSVSGAPGQRVTISCSGSESNIGNNYVQWYQQLPGTAPKLLIYDNNQRPSGVPDRFSGSKSGTSASLAITGLQSEDEADYYCQSYDMNVHVFGGGTKLTVLG is ____.
**Result** 0.28 nM
